The reported measurements were obtained from patent US7074789B2.

Recorded pIC50 for the following molecules
Test System: EGFR (Homo sapiens)
Construct: Kinases are expressed as either kinase domains or full length constructs; made in house
Sequence (P00533 25-1210, species assumed): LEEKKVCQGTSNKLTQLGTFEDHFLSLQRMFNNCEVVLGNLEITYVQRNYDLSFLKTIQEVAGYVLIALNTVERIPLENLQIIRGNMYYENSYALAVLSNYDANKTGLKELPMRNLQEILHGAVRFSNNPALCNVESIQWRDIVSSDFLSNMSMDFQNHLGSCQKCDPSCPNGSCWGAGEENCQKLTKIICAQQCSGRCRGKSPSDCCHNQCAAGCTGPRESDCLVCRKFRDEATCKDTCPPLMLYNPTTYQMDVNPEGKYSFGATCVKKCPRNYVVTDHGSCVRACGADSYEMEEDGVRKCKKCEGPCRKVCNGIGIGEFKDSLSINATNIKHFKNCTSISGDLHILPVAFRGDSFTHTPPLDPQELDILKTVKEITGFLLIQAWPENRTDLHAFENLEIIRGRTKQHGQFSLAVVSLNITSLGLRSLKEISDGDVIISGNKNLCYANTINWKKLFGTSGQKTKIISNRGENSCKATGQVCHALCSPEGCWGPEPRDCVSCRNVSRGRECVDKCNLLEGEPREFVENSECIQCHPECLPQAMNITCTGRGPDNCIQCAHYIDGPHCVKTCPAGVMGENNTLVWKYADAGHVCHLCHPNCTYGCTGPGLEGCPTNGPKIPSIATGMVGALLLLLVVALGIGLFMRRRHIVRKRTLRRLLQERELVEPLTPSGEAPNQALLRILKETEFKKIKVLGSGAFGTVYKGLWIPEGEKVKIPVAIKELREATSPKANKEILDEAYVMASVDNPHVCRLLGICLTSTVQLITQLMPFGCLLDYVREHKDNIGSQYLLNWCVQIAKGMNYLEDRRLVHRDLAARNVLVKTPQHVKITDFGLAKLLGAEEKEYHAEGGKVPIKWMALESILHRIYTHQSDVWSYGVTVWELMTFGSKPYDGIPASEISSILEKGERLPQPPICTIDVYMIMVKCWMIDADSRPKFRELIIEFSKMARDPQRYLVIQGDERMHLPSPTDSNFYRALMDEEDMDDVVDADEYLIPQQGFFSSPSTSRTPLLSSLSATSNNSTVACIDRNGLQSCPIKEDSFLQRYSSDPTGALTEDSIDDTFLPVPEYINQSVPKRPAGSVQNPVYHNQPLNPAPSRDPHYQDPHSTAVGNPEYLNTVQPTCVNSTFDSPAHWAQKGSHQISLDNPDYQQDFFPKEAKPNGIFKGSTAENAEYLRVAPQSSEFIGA
Test Protocol: Kinase inhibition assay (33P transfer), EGFR
Assay type: biochemical
Experimental Conditions: Table 2, class symbols A-E; read-out: EGFR-1
Method: The inhibitor compounds described herein are screened in the following manner. […] Kinases are expressed as either kinase domains or full length constructs fused to glutathione S-transferase (GST) or polyHistidine tagged fusion proteins in either E. colior Baculovirus-High Five expression systems. […] Kinase activity and inhibition are measured essentially by established protocols (Braunwalder et al., 1996). […]
pIC50: −log10 of the molar value.

Reference set, count: 2
c1ccc(CNc2ncnc(Nc3cc(-c4ccco4)n[nH]3)n2)nc1
5.14 to 5.92
COc1ccc(Nc2ncnc(N(C)c3ccccc3OC(F)(F)F)n2)cc1OC
5.24 to 6.02

Next molecule, please.
Send back EGFR (Homo sapiens) pIC50 of "COC(=O)c1ccc(-c2cc(Nc3ncnc(Nc4cc(=O)n(-c5ccccc5)[nH]4)n3)[nH]n2)cc1" only.
5.29 to 6.07
